- Assay system: T1, cynomolgus CD73 on the cell surface (293T/17-cynoCD73 cells) (cynomolgus (Macaca fascicularis), UniProt P21589 27-547 (human entry))
- T1 chain: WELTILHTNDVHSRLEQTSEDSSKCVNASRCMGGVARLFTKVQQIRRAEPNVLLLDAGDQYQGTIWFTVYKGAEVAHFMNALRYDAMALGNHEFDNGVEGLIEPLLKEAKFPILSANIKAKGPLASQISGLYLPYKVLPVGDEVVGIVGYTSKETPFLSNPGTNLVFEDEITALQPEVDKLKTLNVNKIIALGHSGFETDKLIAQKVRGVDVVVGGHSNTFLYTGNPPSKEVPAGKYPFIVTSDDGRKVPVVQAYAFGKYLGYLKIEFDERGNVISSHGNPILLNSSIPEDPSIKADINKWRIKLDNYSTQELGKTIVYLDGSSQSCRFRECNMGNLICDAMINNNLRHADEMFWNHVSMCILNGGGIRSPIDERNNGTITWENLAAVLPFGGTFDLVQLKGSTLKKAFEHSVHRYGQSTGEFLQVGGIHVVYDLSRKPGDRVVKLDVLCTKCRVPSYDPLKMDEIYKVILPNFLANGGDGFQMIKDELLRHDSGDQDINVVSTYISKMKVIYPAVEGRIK
- Procedure text: cell-based or functional assay
Known IC50, blockade of 5'exonuclease activity on 293T/17-Cyno CD73 cells of a selection of binders
A number alone suffices; assume pM.

Example entries begin here.
INSERT INTO assay_data (binder, value_reported) VALUES
  ('JB24Chi (antibody, human IgG1, kappa, V domains shown, Phage antibody, chimeric human IgG1 / human kappa full chains) VH: QVQLQQSGLELVKPGASVKMSCKASGYTFTDYNMHWVKQSHGKSLEWIGYIKPHNGGTTYNPKFEGKATLTVNKSSSTAYMELRSLTSEDSAVYYCVRCDFLYWYFDVWGTGTTVTVSS VL: DIVMTQSPAIMSASLGERVTMTCTASSSVSSSYLHWYQQKPGSSPKLWIYSTSNLASGVPGRFSGSGSGTSYSLTISSMEAEDAATYYCHQYHRSPLTFGAGTKLEMKR', 5),
  ('JB24H2L1 (antibody, human IgG1, kappa, V domains shown, Humanized antibody of JB24Chi, human IgG1 / kappa) VH: QVQLVQSGAEVKKPGASVKMSCKASGYTFTDYNMHWVRQSPGKSLEWIGYIKPHNAGTTYNPKFEGRATLTVDTSASTAYMELSSLRSEDTAVYYCVRSDFLYWYFDVWGQGTTVTVSS VL: DIQMTQSPSSLSASVGDRVTITCTASSSVSSSYLHWYQQKPGKAPKLLIYSTSNLASGVPSRFSGSGSGTDFTLTISSLQPEDFATYYCHQYHRSPLTFGAGTKLEIKR', 79),
  ('JB24H3L2 (antibody, human IgG1, kappa, V domains shown, Humanized antibody of JB24Chi, human IgG1 / kappa) VH: QVQLVQSGAEVKKPGASVKMSCKASGYTFTDYNMHWVKQSHGKSLEWIGYIKPHNAGTTYNPKFEGRATLTVDTSASTAYMELRSLRSEDTAVYYCVRSDFLYWYFDVWGQGTTVTVSS VL: DIQMTQSPSSLSASVGDRVTITCTASSSVSSSYLHWYQQKPGSAPKLWIYSTSNLASGVPSRFSGSGSGTDYTLTISSLQPEDFATYYCHQYHRSPLTFGAGTKLEIKR', 4);

Could you now look at the following binder, please?
Need IC50, blockade of 5'exonuclease activity on 293T/17-Cyno CD73 cells, item JB94H2L1 (antibody, human IgG1, kappa, V domains shown, Humanized antibody of the 94 clone, human IgG1 / kappa) VH: QVQLVQSGAEVKKPGASVKVSCKASGYTFTSYWMHWVRQRPGQGLEWMGYINPSSGYTKSNQKFKDRVTLTADTSTSTAYMELSSLRSEDTAVYYCGRWLLSAWFAYWGQGTLVTVSS VL: DIQMTQSPSSLSASVGDRVTITCKASQDINTYLSWFQQKPGKAPKSLIYRSNILVDGVPSRFSGSGSGQDFTLTISSLQPEDFAIYYCLQYDDFPYTFGQGTKLEIKR 0.1
